Recorded values, source paper PMC6832352.

ASSAY_SYSTEM: β-Glucuronidase (Escherichia coli, UniProt P05804)
Construct: purchased Sigma-Aldrich Chemical Co
Sequence (P05804 whole entry): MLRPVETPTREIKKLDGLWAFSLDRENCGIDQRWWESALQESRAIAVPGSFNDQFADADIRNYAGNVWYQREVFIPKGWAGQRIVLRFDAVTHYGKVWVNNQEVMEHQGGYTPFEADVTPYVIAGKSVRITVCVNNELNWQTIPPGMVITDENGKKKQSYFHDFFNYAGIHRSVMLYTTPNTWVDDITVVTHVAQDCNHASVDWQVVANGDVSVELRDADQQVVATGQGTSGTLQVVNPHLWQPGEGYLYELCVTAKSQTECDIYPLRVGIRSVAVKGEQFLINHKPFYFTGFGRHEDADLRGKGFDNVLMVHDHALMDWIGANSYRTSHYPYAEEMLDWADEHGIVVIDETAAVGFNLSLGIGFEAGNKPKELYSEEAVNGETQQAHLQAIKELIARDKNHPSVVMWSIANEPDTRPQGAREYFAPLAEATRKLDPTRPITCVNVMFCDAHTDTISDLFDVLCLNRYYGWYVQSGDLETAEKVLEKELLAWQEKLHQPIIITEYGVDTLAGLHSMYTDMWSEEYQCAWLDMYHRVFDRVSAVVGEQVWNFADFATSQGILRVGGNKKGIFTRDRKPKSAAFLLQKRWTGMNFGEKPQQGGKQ
EXPERIMENT_SUMMARY: glycosidase inhibition assay, E. coli β-glucuronidase
Format: biochemical
pIC50: −log10 of the molar value.
Quick list: pIC50 per entry.
ENDPOINT_NAME: pIC50

COMPOUND: OCCCC(O)CCCCCCCCCC1NC(CO)C(O)C1O (stereo not drawn) [2,10-di-epi-3]
REPORTED_RELATION: =
RESULT_NUMBER: 4.10
//
COMPOUND: OCCC[C@H](O)CCCCCCCCC[C@H]1N[C@H](CO)[C@@H](O)[C@@H]1O [10’-epi-3]
REPORTED_RELATION: =
RESULT_NUMBER: 4.70
//
COMPOUND: OCCC[C@@H](O)CCCCCCCCC[C@H]1N[C@H](CO)[C@@H](O)[C@@H]1O [compound 3]
REPORTED_RELATION: =
RESULT_NUMBER: 4.07
//
COMPOUND: OCCC[C@@H](O)CCCCCCCCC[C@@H]1N[C@@H](CO)[C@H](O)[C@H]1O [ent-10’-epi-3]
REPORTED_RELATION: <
RESULT_NUMBER: 4.00

====

ASSAY_SYSTEM: Rat intestinal maltase
EXPERIMENT_SUMMARY: rat intestinal maltase inhibition (brush border membranes, maltose)
Format: biochemical
pIC50: −log10 of the molar value.
ENDPOINT_NAME: pIC50

MOLECULE: OCCC[C@@H](O)CCCCCCCCC[C@H]1N[C@@H](CO)[C@@H](O)[C@@H]1O [2-epi-3]
ENDPOINT_NAME: pIC50
REPORTED_RELATION: <
RESULT_NUMBER: 4.00
//
MOLECULE: OCCC[C@@H](O)CCCCCCCCC[C@H]1N[C@H](CO)[C@@H](O)[C@@H]1O [compound 3]
ENDPOINT_NAME: pIC50
REPORTED_RELATION: <
RESULT_NUMBER: 4.00
//
MOLECULE: OCCC[C@H](O)CCCCCCCCC[C@@H]1N[C@@H](CO)[C@@H](O)[C@H]1O [ent-3-epi-3]
ENDPOINT_NAME: pIC50
REPORTED_RELATION: =
RESULT_NUMBER: 4.38
//
MOLECULE: OCCC[C@H](O)CCCCCCCCC[C@@H]1N[C@@H](CO)[C@H](O)[C@H]1O [ent-3]
ENDPOINT_NAME: pIC50
REPORTED_RELATION: =
RESULT_NUMBER: 6.54
//
MOLECULE: OCCC[C@H](O)CCCCCCCCC[C@H]1N[C@H](CO)[C@@H](O)[C@@H]1O [10’-epi-3]
ENDPOINT_NAME: pIC50
REPORTED_RELATION: <
RESULT_NUMBER: 4.00
//
MOLECULE: OCCCC(O)CCCCCCCCCC1NC(CO)C(O)C1O (stereo not drawn) [2,10-di-epi-3]
ENDPOINT_NAME: pIC50
REPORTED_RELATION: =
RESULT_NUMBER: 5.85
//
MOLECULE: OCCC[C@@H](O)CCCCCCCCC[C@@H]1N[C@@H](CO)[C@@H](O)[C@H]1O [ent-3,10-di-epi-3]
ENDPOINT_NAME: pIC50
REPORTED_RELATION: =
RESULT_NUMBER: 4.08
